FYI, the data here is from patent US9247759B2.

For each entry below, report its inhibition at 25 µM value.
- Assayed Target: hT2R3 (Homo sapiens (Human), UniProt Q9NYW6)
- Sequence (Q9NYW6 whole entry): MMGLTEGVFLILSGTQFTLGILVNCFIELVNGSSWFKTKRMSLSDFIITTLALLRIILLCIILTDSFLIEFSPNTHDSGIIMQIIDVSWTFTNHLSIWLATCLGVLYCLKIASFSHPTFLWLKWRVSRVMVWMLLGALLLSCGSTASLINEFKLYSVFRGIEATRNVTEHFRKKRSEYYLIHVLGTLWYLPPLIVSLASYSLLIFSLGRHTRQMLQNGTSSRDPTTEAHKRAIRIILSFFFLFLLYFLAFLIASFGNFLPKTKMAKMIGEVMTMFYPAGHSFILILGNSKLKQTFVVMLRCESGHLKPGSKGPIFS
- Protocol Summary: hT2R panel inhibition, transient HEK293 G16g44, agonist Chloroquine pH6.5 50 μM
- Format: cell-based
- Condition Description: HEK293, compound at 25 μM; receptor activated to EC80 with the corresponding agonist; read-out: screening result against bitter receptor 3

Below: 3 molecules and their reported inhibition at 25 µM.
Molecule: CCCOc1ccc(CN(Cc2ccco2)S(=O)(=O)c2ccc(C(=O)O)cc2)cc1
Metric Name: inhibition at 25 µM
Assay Value: 20 to 40%
--
Molecule: COc1cccc(CN(Cc2ccc(C(=O)O)cc2)S(=O)(=O)c2ccccc2)c1
Metric Name: inhibition at 25 µM
Assay Value: 60 to 80%
--
Molecule: Cc1ccc(S(=O)(=O)N(Cc2ccc(F)cc2)CC2CCC(C(=O)O)CC2)cc1 (centres unmarked)
Metric Name: inhibition at 25 µM
Assay Value: > 80%

Hey, quick one: what's inhibition at 25 µM for each of these?
1. COc1ccccc1CN(Cc1ccc(C(=O)O)cc1)S(=O)(=O)c1ccc(O)cc1
2. COc1ccc(CN(Cc2ccccc2)S(=O)(=O)c2ccc(C(=O)O)cc2)cn1
3. O=C(O)c1ccc(CN(Cc2ccccc2)S(=O)(=O)c2ccc(C(=O)O)cc2)cc1

result:
1: 20 to 40%; 2: 40 to 60%; 3: 40 to 60%

Hey, quick one: what's inhibition at 25 µM for each of these?
1. O=C(O)c1ccc(S(=O)(=O)N(Cc2ccccc2)Cc2cccc(C(=O)O)c2)cc1
2. COc1ccc(CN(Cc2ccccc2C)S(=O)(=O)c2ccc(C(=O)O)cc2)cc1

result:
1: 20 to 40%; 2: 20 to 40%

----------
- Assayed Target: hT2R8 (Homo sapiens (Human))
- Protocol Summary: hT2R8 antagonist high-throughput FLIPR assay, stable cell line with G16g44, agonist andrographolide
- Format: cell-based
- Condition Description: Table A; read-out: hT2R8 IC50
pIC50: −log10 of the molar value.
Would you mind labelling by pIC50? At or over 6 is class 1, under is class 0.

Solved cases below.
Compound: COC(C(=O)Nc1cnn(Cc2c(C)noc2C)c1)c1ccccc1 (stereo not shown) [Example 4-43]
Assayed Target: hT2R8 (Homo sapiens (Human))
Class Assignment: class 0
--
Compound: COc1cc(C(=O)Nc2cnn(Cc3c(C)noc3C)c2)cc(O)c1O [Example 4-73]
Assayed Target: hT2R8 (Homo sapiens (Human))
Class Assignment: class 0
--
Compound: COc1cccc(CN(Cc2cccc(OC)c2OC)c2cnn(Cc3c(C)noc3C)c2)c1OC [Example 4-64]
Assayed Target: hT2R8 (Homo sapiens (Human))
Class Assignment: class 0

query: Determine whether measured pIC50 meets or exceeds 6 for Cc1noc(C)c1Cn1cc(NC(=O)c2ccc3ocnc3c2)cn1 [Example 4-72]
result: class 0

query: Repeat for the following compound: Cc1noc(C)c1Cn1cc(NC(=O)C(c2ccccc2)c2ccccc2)cn1 [Example 4-44]
result: class 0

query: Repeat for the following compound: COc1ccc(OC)c(NC(=S)Nc2cnn(Cc3c(C)noc3C)c2)c1 [Example 4-113]
result: class 0

query: Repeat for the following compound: COc1ccccc1C(=O)Nc1cnn(Cc2c(C)noc2C)c1 [Example 4-19]
result: class 1

----------
For each entry below, report its inhibition at 25 µM value.
- Assayed Target: UniProt P59537
- Sequence (P59537 whole entry): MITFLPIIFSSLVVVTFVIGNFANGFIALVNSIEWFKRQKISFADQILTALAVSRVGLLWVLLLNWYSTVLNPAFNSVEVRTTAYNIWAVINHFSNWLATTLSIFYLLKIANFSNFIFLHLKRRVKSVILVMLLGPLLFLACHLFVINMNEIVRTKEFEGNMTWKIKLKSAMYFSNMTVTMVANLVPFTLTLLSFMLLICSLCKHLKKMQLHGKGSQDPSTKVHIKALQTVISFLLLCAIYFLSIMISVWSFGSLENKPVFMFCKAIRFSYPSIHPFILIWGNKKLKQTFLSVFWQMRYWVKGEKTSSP
- Protocol Summary: hT2R panel inhibition, transient HEK293 G16g44, agonist Aristolochic Acid 25 nM
- Assay type: cell-based
- Condition Description: HEK293, compound at 25 μM; receptor activated to EC80 with the corresponding agonist; read-out: screening result against bitter receptor 61

Compound: COc1ccc(CN(Cc2ccccn2)S(=O)(=O)c2ccc(C(=O)O)cc2)cc1 [Example 5-87]
inhibition at 25 µM: 40 to 60%
//
Compound: O=C(O)C1CCC(CN(Cc2ccc(F)cc2)S(=O)(=O)c2cccs2)CC1 (stereo not shown) [Example 5-51]
inhibition at 25 µM: > 80%
//
Compound: CCOc1ccc(CN(Cc2ccco2)S(=O)(=O)c2ccc(C(=O)O)cc2)cc1 [Example 5-3]
inhibition at 25 µM: 40 to 60%

query: Quick one: inhibition at 25 µM of COc1ccc(CN(Cc2ccc(C(=O)O)cc2)S(=O)(=O)c2ccc(C(=O)O)cc2)cc1 [Example 5-38] ?
result: > 80%

----------
- Assayed Target: UniProt Q9NYV8
- Sequence (Q9NYV8 whole entry): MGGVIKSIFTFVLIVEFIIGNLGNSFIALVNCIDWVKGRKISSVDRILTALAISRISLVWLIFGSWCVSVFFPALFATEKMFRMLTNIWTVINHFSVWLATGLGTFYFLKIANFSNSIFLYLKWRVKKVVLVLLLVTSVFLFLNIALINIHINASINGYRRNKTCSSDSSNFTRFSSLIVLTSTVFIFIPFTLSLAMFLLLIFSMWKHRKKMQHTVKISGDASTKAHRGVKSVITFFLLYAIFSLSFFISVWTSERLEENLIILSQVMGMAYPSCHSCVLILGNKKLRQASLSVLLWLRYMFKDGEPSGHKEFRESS
- Protocol Summary: hT2R14 antagonist high-throughput FLIPR assay, stable cell line with G16g44, agonist aristolochic acid
- Assay type: cell-based
- Condition Description: Table D; read-out: hT2R14 IC50
// boundary case: IC50 equal to 5 µM maps to No; strictly smaller maps to Yes

query: Bench note: check whether CNS(=O)(=O)c1ccc2[nH]c(=O)c(=O)[nH]c2c1 [Example 6-30] shows IC50 below 5 µM
result: No

query: Repeat for the following molecule: CCc1nc(SCC(=O)N2CCC(C)CC2)c2c(=O)n(C)c(=O)n(C)c2n1 [Example 6-26]
result: Yes

query: Repeat for the following molecule: Cc1nc2ccc(NS(=O)(=O)c3ccc4c(c3)n(C)c(=O)c(=O)n4C)cc2nc1C [Example 6-19]
result: No

query: Repeat for the following molecule: Cc1ccccc1NS(=O)(=O)c1ccc2c(c1)c(=O)n(C)c(=O)n2C [Example 6-9]
result: Yes

query: Repeat for the following molecule: CCN(C)C(=O)CSc1nc(C)nc2c1c(=O)n(C)c(=O)n2C [Example 6-22]
result: Yes

query: Repeat for the following molecule: N#C/C(=C\c1ccc2c(c1)OCO2)C(=O)Nc1nnc(-c2ccccc2)s1 [Example 6-14]
result: Yes

query: Repeat for the following molecule: Cn1c(=O)c2cc(S(=O)(=O)NC3CCCCC3)ccc2n(C)c1=O [Example 6-16]
result: No

query: Repeat for the following molecule: COc1cc(/C=C2\SC(=S)N(CCC(=O)O)C2=O)cc(OC)c1 [Example 6-13]
result: No

query: Repeat for the following molecule: CCOC(=O)N1CCN(C(=O)CSc2nc(CC)nc3c2c(=O)n(C)c(=O)n3C)CC1 [Example 6-27]
result: Yes

query: Repeat for the following molecule: Cn1c(=O)c2cc(S(=O)(=O)Nc3ccc4c(c3)OCCO4)ccc2n(C)c1=O [Example 6-6]
result: Yes

query: Repeat for the following molecule: Cc1c(F)cccc1NS(=O)(=O)c1ccc2c(c1)c(=O)n(C)c(=O)n2C [Example 6-18]
result: Yes

query: Repeat for the following molecule: COc1cc(OC)c(/C=C2\SC(=S)N(CCC(=O)O)C2=O)c(OC)c1 [Example 6-12]
result: No

query: Repeat for the following molecule: Cn1c(=O)c2c(SCC(=O)N3CCCCCC3)ccnc2n(C)c1=O [Example 6-28]
result: Yes

query: Repeat for the following molecule: CC(=O)CSc1nc(C2CCCC2)nc2c1c(=O)n(C)c(=O)n2C [Example 6-15]
result: No

----------
- System: bitter taste of instant coffee
- Protocol Summary: 2-alternative forced choice taste test, instant coffee with hT2R8 antagonists
- Format: in vivo, human
- Condition Description: antagonist 5 μM
Metric Name: Selected as bitterer: Without antagonists
Answers are plain numbers.

Below: 4 molecules and their reported Selected as bitterer: Without antagonists.
Molecule: COc1cc(O)cc(CN2C(=O)N(c3cnn(Cc4c(C)noc4C)c3)C(=O)C2(C)C)c1
Assay Value: 17
--
Molecule: COc1ccc(CN2C(=O)N(c3cnn(Cc4c(C)noc4C)c3)C(=O)C2(C)C)cc1O
Assay Value: 14
--
Molecule: Cc1noc(C)c1Cn1cc(N2C(=O)N(Cc3cccc(O)c3)C(C)(C)C2=O)cn1
Assay Value: 14
--
Molecule: Cc1noc(C)c1Cn1cc(N2C(=O)N(Cc3cccc(CO)c3)C(C)(C)C2=O)cn1
Assay Value: 13

Now for the molecule whose Selected as bitterer: Without antagonists we want.
query: Quick one: Selected as bitterer: Without antagonists of Cc1noc(C)c1Cn1cc(N2C(=O)CN(Cc3cccc(O)c3)C2=O)cn1 ?
result: 14

----------
- Assayed Target: hT2R8 (Homo sapiens (Human), UniProt Q9NYW2)
- Sequence (Q9NYW2 whole entry): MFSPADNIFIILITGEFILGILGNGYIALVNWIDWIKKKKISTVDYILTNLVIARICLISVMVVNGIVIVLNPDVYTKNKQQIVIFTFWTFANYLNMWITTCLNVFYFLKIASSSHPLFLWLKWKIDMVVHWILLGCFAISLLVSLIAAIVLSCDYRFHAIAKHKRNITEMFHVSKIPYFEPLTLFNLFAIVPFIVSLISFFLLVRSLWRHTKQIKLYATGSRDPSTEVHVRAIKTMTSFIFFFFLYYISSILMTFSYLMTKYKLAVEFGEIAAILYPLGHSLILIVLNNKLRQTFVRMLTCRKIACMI
- Protocol Summary: hT2R8 antagonist high-throughput FLIPR assay, stable cell line with G16g44, agonist andrographolide
- Format: cell-based
- Condition Description: read-out: IC50 on hT2R8 bitter receptor
pIC50: −log10 of the molar value.
Would you mind labelling by pIC50? At or over 7 is yes (1), under is no (0).

Molecule: Cc1noc(C)c1Cn1cc(N2C(=O)N(Cc3ccc(F)c(O)c3)C(C)(C)C2=O)cn1
Assayed Target: hT2R8 (Homo sapiens (Human), UniProt Q9NYW2)
Class Assignment: yes (1)
//
Molecule: COc1ccc(CN2C(=O)N(c3cnn(Cc4c(C)noc4C)c3)C(=O)C23CC3)cc1O
Assayed Target: hT2R8 (Homo sapiens (Human), UniProt Q9NYW2)
Class Assignment: yes (1)
//
Molecule: Cc1noc(C)c1Cn1cc(NC(=O)c2scc(S(C)(=O)=O)c2Cl)cn1
Assayed Target: hT2R8 (Homo sapiens (Human), UniProt Q9NYW2)
Class Assignment: no (0)

query: Determine whether measured pIC50 meets or exceeds 7 for COc1ccc(OC)c(C(=O)Nc2cnn(Cc3c(C)noc3C)c2)c1
result: no (0)

query: Repeat for the following molecule: COc1cc(C(=O)Nc2cnn(Cc3c(C)noc3C)c2)cc2c1OCO2
result: no (0)

query: Repeat for the following molecule: Cc1noc(C)c1Cn1cc(N2C(=O)NC(C(C)C)C2=O)cn1 (centres unmarked)
result: no (0)

query: Repeat for the following molecule: Cc1noc(C)c1Cn1cc(NC(=O)CC(C)c2ccccc2)cn1 (centres unmarked)
result: no (0)

query: Repeat for the following molecule: Cc1noc(C)c1Cn1cc(N2C(=O)N(CCOc3ccccc3)C(C)(C)C2=O)cn1
result: no (0)

query: Repeat for the following molecule: Cc1noc(C)c1Cn1cc(N2C(=O)NC(COCc3ccccc3)C2=O)cn1 (centres unmarked)
result: no (0)

query: Repeat for the following molecule: Cc1noc(C)c1Cn1cc(NC(=O)C2(c3ccccc3)CC2)cn1
result: no (0)

query: Repeat for the following molecule: COc1ccc(CN2C(=O)N(c3cnn(Cc4c(C)noc4C)c3)C(=O)C23CC3)cc1OC
result: yes (1)

query: Repeat for the following molecule: Cc1noc(C)c1Cn1cc(N2C(=O)N(Cc3cccc(O)c3)C(C)(C)C2=O)cn1
result: yes (1)

query: Repeat for the following molecule: Cc1noc(C)c1Cn1cc(N2C(=O)NC(Cc3ccccc3)C2=O)cn1 (centres unmarked)
result: no (0)

query: Repeat for the following molecule: Cc1noc(C)c1Cn1cc(NC(=O)C23CC4CC(CC(C4)C2)C3)cn1
result: no (0)

query: Repeat for the following molecule: Cc1noc(C)c1Cn1cc(N2C(=O)N(C)C(C)(C)C2=O)cn1
result: no (0)

query: Repeat for the following molecule: Cc1noc(C)c1Cn1cc(N2C(=O)CN(Cc3cccc(CNC(=O)OC(C)(C)C)c3)C2=O)cn1
result: no (0)

query: Repeat for the following molecule: Cc1noc(C)c1Cn1cc(N2C(=O)CNC2=O)cn1
result: no (0)

query: Repeat for the following molecule: COCCN1C(=O)N(c2cnn(Cc3c(C)noc3C)c2)C(=O)C1(C)C
result: no (0)

query: Repeat for the following molecule: Cc1noc(C)c1Cn1cc(-n2c(=O)n(C)n(CCc3ccc(F)cc3)c2=O)cn1
result: yes (1)

query: Repeat for the following molecule: COc1cc2c(cc1C(=O)Nc1cnn(Cc3c(C)noc3C)c1)OCCO2
result: no (0)
